Each recorded value in this set is attributed to patent US20190248900A1.

Kindly state OD490 for each of the entries shown.
# assayed system: T1, M1
# T1 construct: also called PD1 mutant M1
# method summary: scFv-phage ELISA
Form field (numeric): enter value without unit.

Respond only with OD490 recorded for PD1-48A9 (antibody, V domains shown, scFv-phage in the screening ELISA; whole IgG in the other assays) VH: QMQLVQSGAEVKKPGSSVKVSCKASGDTFTRYIINWVRQAPGQGLEWMGRVIPTLGLTTYAQNFQDTVTIIADKSTNTAYMELKNLRSEDTAVYYCARGYGSGAFDIWGQGTMITVSS VL: DIVMTQTPLSLPVTPGEPASISCRSSQSLLDSHDGNTYLDWYLQKPGQSPQLLIYTLSHRASGVPDRFSGSGSGTDFTLKISRVEAEDVGLYYCMQRIDFPYTFGQGTKVEIK
3.7

Respond only with OD490 recorded for PD1-45F1 (antibody, V domains shown, scFv-phage in the screening ELISA; later whole IgG) VH: QVQLVQSGAEVKKPGASVKLSCKASGYTFNSYYVHWVRQAPGQGLEWMGIINPSDGSATYAQKFQGRVTMTSDTSTSSVYMELSSLRSEDTAVYYCARDGNYYDSRGYYYDTFDMWGQGTLITVSS VL: SYELTQDPAVSVALGQTVRITCQGDSLRTYYASWYQQKPGQAPILVIYGKNNRPSGIPDRFSGSSSGNTASLTITAAQAEDEADYYCNSRDSSGKSLVFGGGTKLTVL
3.9

Respond only with OD490 recorded for PD1-31F3 (antibody, V domains shown, scFv-phage in the screening ELISA; later whole IgG) VH: QVQLVQSGAEVKKPGSSVKVSCKASGGTFSSYAISWVRQAPGQGLEWMGGIIPLFSTAHSAQKFQGRVTITADESSSTAYMELSSLRSEDTAVYYCAKHKGLPFDWSPDGFDTWGQGTMVTVSS VL: QFVLTQPPSVSGAPGQRVIISCTGSSSNIGAGYDVHWYQQLPGTAPKVLIYGNSDRPSGVPDRFSASKSATSASLAITGLQAEDEADYYCQSYDSSLSGYVFGTGTKVTVL
3
